This collection of values is drawn from ChEMBL document CHEMBL3507680.

Reported values of cytotoxicity at 70.5 h for individual entries
Experimental Details: Human HepG2 cell viability assay in 384 well format
Type: toxicity, cell-based
Design: dose 125 nL, time 70.5 hour; concentration not given beside the values
Test Context: HepG2 cells, read-out: Inhibition
Please answer using the number first and the unit second.

Study these solved cases before continuing.
CC(C)CCn1ccc(NC(=O)N2CCCC2C(C)(C)O)n1 (configuration not stated) ... -6.63%
Cc1cccc(OCc2ccc(C(=O)N3N=CCC3(O)C(F)(F)F)o2)c1 (configuration not stated) ... 9.08%
CC(C)n1c(=O)c2ccccc2n(CCN2CCCCC2)c1=O ... -12.6%
CCCOc1cc(C)ccc1NC(=O)N(C)C ... 4.68%
O=C(CCC(=O)N1CCOCC1c1ccccc1)c1cccs1 (configuration not stated) ... -2.2%

The measured cytotoxicity at 70.5 h associated with O=C(CCn1ncc2c(Cl)cccc21)NCCCn1cccn1 reads -5.51%

The reported cytotoxicity at 70.5 h of the molecule CCCc1nc(CNc2ccc(F)c(F)c2)no1 was 14.6%

The molecule listed as O=C(NCC1CC1)C1CN(C(=O)c2cccnc2)CC12CCOCC2 (configuration not stated) has a reported cytotoxicity at 70.5 h of -7.11%

// field: cytotoxicity at 70.5 h; key: Cc1nc(C(=O)N2CCC(c3nnc(Cn4ccnc4)n3C)CC2)cs1 ; value = -8.64%

So, CC(Cc1ccc(C(F)(F)F)cc1)C(=O)N1CCCS1(=O)=O (configuration not stated) ? Its cytotoxicity at 70.5 h was -9.41%

Reported cytotoxicity at 70.5 h for COc1cccc(CN2CCC(CO)(Cc3ccc(Cl)cc3)CC2)c1O was -5.98%

What the record says about Cc1occc1CNC(=O)C1CCN(C(=O)OC(C)(C)C)C1 (configuration not stated) : cytotoxicity at 70.5 h is -0.732%
